Test system: NCI-H292 lung cancer cells
Test: FDA drug screening, complete media vs cholesterol-free media without statin (TABLE 1)
Type: cell-based, human
Conditions: NCI-H292 cells, complete media
Threshold check on Complete: strictly below 0.8 is rule met; on or above 0.8 is rule not met.

Reference set (4 entries):
Cc1cc(=O)n(-c2ccccc2)n1C [Antipyrine] | rule not met
CC(C)(C)NCC(O)COc1cccc2c1CC(O)C(O)C2 (stereo not drawn) [Nadolol] | rule not met
CCCCCCCCCC(=O)N[C@@H](Cc1c[nH]c2ccccc12)C(=O)N[C@H](CC(N)=O)C(=O)N[C@@H](CC(=O)O)C(=O)N[C@@H]1C(=O)NCC(=O)N[C@@H](CCCN)C(=O)N[C@@H](CC(=O)O)C(=O)N[C@H](C)C(=O)N[C@@H](CC(=O)O)C(=O)NCC(=O)N[C@H](CO)C(=O)N[C@@H]([C@H](C)CC(=O)O)C(=O)N[C@@H](CC(=O)c2ccccc2N)C(=O)O[C@@H]1C [Daptomycin] | rule met
COc1cc2ncnc(Nc3ccc(F)c(Cl)c3)c2cc1OCCCN1CCOCC1 [Gefitinib] | rule met

Now look at this one.
Input: Is Complete strictly under 0.8 for the entry N[C@@H](Cc1cc(I)c(Oc2ccc(O)c(I)c2)c(I)c1)C(=O)O [Liothyronine] ?
Output: rule not met
